// data source = the nanobody polyreactivity screen of Harvey et al. (2022)

# methodDescription: yeast display, Sf9 membrane polyspecificity reagent, FACS + sequencing; frameworks hold sequencing errors
quantity: polyreactivity (PSR sort gate)

Here's what some known entries look like.
inputSequence	polyreactivity (PSR sort gate)
QVQLVESGGGLVQAGGSLRLSCAASGSIFRFYTMGWYRQAPGKERELVASITWTGGSTYYADSVKGRFTISRDNAKNTVYLQMNSLKPEDTAVYYCAARRYRRLVGRYDYWGQGTQVTVSS	low polyreactivity
QVQLVESGGGLVQAGGSRRLSCAASGFIFTTYTRGWYRQATGTERELVAAIRSDGVRTYYADSVKGRFTISRDNAKNTVYLQMNSLKPEDTAVYYCNRVCAVRIGAGDYWGQGTQVTVSS	high polyreactivity
QVQLVESGGGLVQAGGSLRLSCAASGFTFYYYTMGWYRQAPGKERELVAGITSRGGSTTYADSVKGRFTISRDNAKNTVYLQMNSLKPEDTAVYYCNARWAVHSGYDYWGQGTLVTVSS	high polyreactivity
QVQHVESGGRLVQAGGSLRLICAASGRTFAPYAMGWYRQAPGKVRELVARITWSGTDTYYADSVKGRFTISRDNAKNTVYLQMNSLKPEDTAVYYCAADARYSRRYYYWGEGTQVTVSS	low polyreactivity
QVQLVESGGGLVQAGGSLRLSCAASGRIFRYNTMGWYRQAHGKERELVAAIDRGSSTNYADSVKGRFTISRDNAKNTVYLQMNSLKPEDTAVYYCAARVFRPYGSLYDYWGQGTQVTVSS	high polyreactivity

Hi, could you look up polyreactivity (PSR sort gate) for each item in my list?
1. QVQLVESGGGLVQAGGSLRISCAPSGFTFIYYDMGWYRQAPGKERELVAAINRGGNTYYADSVKGRFTISRDNAKNTVFLLMNSLKPEDTAVYYCNARSYRRGTWYNSWGQGTKVTVSS
2. QVQLLESGGGLVQAGGSLRLSCDASGITFGPNAMGWYRQAPGKERELVATISSSGGSTYYSDSVKGRFTISRDNAKNTVLLQMKSLKPEDTAVYYCNSGFDPYLGAYDYWGQGTQVTVSS

Output:
high polyreactivity
low polyreactivity

###

# methodDescription: yeast display, Sf9 membrane polyspecificity reagent, FACS + sequencing; frameworks hold sequencing errors
quantity: polyreactivity (PSR sort gate)

inputSequence	polyreactivity (PSR sort gate)
QVQLVESGGGIVQAGGSLRLSCAASGFTYDENAMGWYRQAPGINYSGASTYYAESVKGRFTISRDNAKNTVYLQMNSLKPEDTAVYYCAAEVVAQMNYWGQGTQVTVSS	low polyreactivity
QVQLVESGGGLVQAGGSLRLSCAASGRTFYPYAMGWYRQAPGKERELVAAINWRDGSTYYADSVKGRFTISRDNAKNTVYLQMNSLKPEDTAVYYCAADYYWWQYDYWGQGTQVTVSS	high polyreactivity
QVQLVESGGGLVQAGGSLRLSCAASGSIFKQYAMGWYRQAPGKERELVAAITWRGTGTYYADSVKGRFTISRDNAKNTVYLQMNSLKPEDTAVYYCAAKWYRRTYGYLPYTGIVNYDYWGQGTQVTVSS	high polyreactivity
QVQLVESGGGLVQAGGSLRLSCAASGFTFYGNAMGWYRQAPGKERELVAAISLSDGYADSVKGRFTISRDNAKNTVYLLMNSLKPEDTAVYYCAKDRTDSKRREHDYWGQGTQVTVSS	low polyreactivity
QVQLVESGGGLVQAGGSLRLSCAASGSTFDVYAMGGYRQAPGKERELVAVISSSDGGITYYADSVKGRFTISRDNAKNTVYLQMNSLKPEDTAVYYCNAESFIWLPQYSDYDYWGQGTQVTVSS	high polyreactivity

// input: 5 sequences below; output: polyreactivity (PSR sort gate) for each
1. QVQLVESGGGLVQAGGSLRLSCAASGSIFRGNAMGWYRQAPGKERELDATISNGGSTNYADAVKGRFTISRDNAKNTVYLQMNSLKPEDTAVYYCAKPLYKTWWGYAYDYWGQGTQVTVSS
2. KVQLVESGGGLVQAGGSLRLSCAASGSTFSYYAMGWYRQGPGKERELVAAITRSGYSTYYADSVKGRFTISLDNAKNTVYLQMNSLKPEDTAVYYCNTVSRYKYPKPTYYQSSFYYWGQGTQVTVSS
3. QVQLVESGGGLVQAGGSLSLSCAASGSTMATYTMGWYRQAPGKERELVAAISFGGSTYYADSVKGRFTISRDNAKNTVYLQMNSLKPEDTAVYYCAVYGDSYWGAYYYSDGYWGQGTQVTVSS
4. QVQLVESGGGLVQAGGSLRLSCAASGRIFNRNAMGWYRQAPGKERELVAAISSSGGSTYYADSVKGRFTISRDTAKNTVYLQMNSLKPEDTAVYYCAAVTQSYGYYYWGQGTQVTVSS
5. QVQLVESGGGLVQAGGSLRLSCAASGRIFFRYAMGWYRQAPGKERELVASIRFRGGSTYYADSVKGRFTISRDNAKNTVYLQLNSLKPVDTAVYYCATPGSFTGTQRTGDYWGQGTQVTVSS

Output:
1: high polyreactivity; 2: high polyreactivity; 3: low polyreactivity; 4: high polyreactivity; 5: high polyreactivity

Task: Using the record for `QVQLVESGGGLVQAGGSLRLSCAASGRTFTGYAMGWYRQAPGKERELVAAISASGGSTYYADSVKGRFTISRDIAKNTVYFQMNSLKPEDTAVYYCAAETWYSVLWEEGYDYWGQGTQVTVSS` , report its polyreactivity (PSR sort gate).
Output: low polyreactivity
